System: Ps. aeruginosa721
Assay: In vitro antibacterial activity, two-fold agar-plate dilution method (MIC), Ps. aeruginosa 721
Assay type: cell-based
Details: Pseudomonas aeruginosa; Ps. aeruginosa721; HI-agar, 37° C., 20 hours; 10^8 viable cells per ml; read-out: minimal inhibitory concentration (MIC)
Method: In vitro antibacterial activity was determined by the two-fold agar-plate dilution method as described below. One loopful of an overnight culture of each test strain in Trypticase-soy broth (10^8 viable cells per ml) was streaked on heart infusion agar (HI-agar) containing graded concentrations of antibiotics, and the minimal inhibitory concentration (MIC) was expressed in terms of μg/ml after incubation at 37° C. for 20 hours.
// boundary case: MIC equal to 20 mg/L maps to label 0; strictly smaller maps to label 1

Answered examples (3):
compound="Cn1nnnc1SCC1=C(C(=O)O)N2C(=O)C(NC(=O)/C(=N\\O)c3ccc(O)cc3)C2SC1 (stereo not drawn) [Test Compound (1)]" classification="label 0"
compound="Cc1nnc(SCC2=C(C(=O)O)N3C(=O)C(NC(=O)/C(=N\\O)c4cccc(O)c4)C3SC2)s1 (stereo not drawn) [Test Compound (5)]" classification="label 1"
compound="CC(=O)OCC1=C(C(=O)O)N2C(=O)C(NC(=O)/C(=N\\O)c3cccc(O)c3)C2SC1 (stereo not drawn) [Test Compound (8)]" classification="label 0"

Ask: is_below(MIC, 20 mg/L) for O=C(O)C1=C(CSc2nncs2)CSC2C(NC(=O)/C(=N\O)c3cccc(O)c3)C(=O)N12 (stereo not drawn) [Test Compound (4)] ?
Result: label 1

Ask: How about this compound: Cn1nnnc1SCC1=C(C(=O)O)N2C(=O)C(NC(=O)/C(=N\OC(=O)c3ccccc3)c3cccc(O)c3)C2SC1 (stereo not drawn) [Test Compound (6)]
Result: label 1

Ask: How about this compound: CCOC(=O)O/N=C(\C(=O)NC1C(=O)N2C(C(=O)O)=C(CSc3nnnn3C)CSC12)c1cccc(O)c1 (stereo not drawn) [Test Compound (7)]
Result: label 0

Ask: How about this compound: Cn1nnnc1SCC1=C(C(=O)O)N2C(=O)C(NC(=O)/C(=N\O)c3cccc(O)c3)C2SC1 (stereo not drawn) [Test Compound (2)]
Result: label 0

Ask: How about this compound: NC(=O)OCC1=C(C(=O)O)N2C(=O)C(NC(=O)/C(=N\O)c3cccc(O)c3)C2SC1 (stereo not drawn) [Test Compound (9)]
Result: label 1

Ask: How about this compound: Cc1nnc(SCC2=C(C(=O)O)N3C(=O)C(NC(=O)/C(=N\O)c4ccccc4)C3SC2)s1 (stereo not drawn) [Test Compound (A), reference compound]
Result: label 0

Source of measurements: patent US4143166A
